Please respond with reported GI50 for every item in the list.
test system: IGROV-1; assay: NCI tumour cell line growth inhibition, 48 h
The source made the active and inactive calls. Rule as the data show it: active = GI50 up to about 1.1 µM and inactive = higher.

Inquiry: // lookup GI50 for CC(=O)O[C@@H]1C(C2CCCCC2)C=[N+]([O-])O[C@@H]1OC1CCCC1(c1ccccc1)c1ccccc1 (some centres not stated)
Reply text: 3.21 µM (inactive)

Inquiry: Input CC(C)(C)n1c(=O)n(C(=O)C(Cl)(Cl)Cl)n(C(=O)C(Cl)(Cl)Cl)c1=O
Reply text: > 100 µM (inactive)

Inquiry: Input CC1(C)C2CCC1(CS(=O)(=O)Nc1ccccc1)C(=O)C2 (configuration not stated)
Reply text: > 100 µM (inactive)

Inquiry: Input O=C(O)C1C2OC(C(Br)C2Br)C1C(=O)O (configuration not stated)
Reply text: > 100 µM (inactive)

Inquiry: Input COc1cc(C(O)CCBr)c(OC)cc1C (configuration not stated)
Reply text: 24.4 µM (inactive)

Inquiry: Input Nc1ccc(-c2cssc2=S)cc1
Reply text: 50.7 µM (inactive)

Inquiry: Input Cc1c(-c2ccccc2)[nH]c2cn[nH]c(=O)c12
Reply text: > 100 µM (inactive)

Inquiry: Input CC(C)(CC1(C)NC(=O)NC1=O)OCc1ccccc1 (configuration not stated)
Reply text: > 100 µM (inactive)

Inquiry: Input CN(CC(=O)O)c1ncc2c(n1)-c1ccccc1SC2
Reply text: > 100 µM (inactive)

Inquiry: Input CC(C)=CC(=O)C/C(=N\NC(N)=S)C(=O)Nc1ccc(Cl)cc1
Reply text: > 100 µM (inactive)

Inquiry: Input CS(=O)(=O)c1nc(-c2cc3c(c(S(C)(=O)=O)n2)CCC3)cc2c1CCCCC2
Reply text: 20.1 µM (inactive)

Inquiry: Input Nc1c2c(nc3ccccc13)-c1ccccc1NCCC2
Reply text: 33.3 µM (inactive)

Inquiry: Input CC(C)=CC(=O)OC1C2C(C)C(=O)OC2C(O)C(C)C2C=CC(=O)C21C (configuration not stated)
Reply text: 3.33 µM (inactive)

Inquiry: Input N#Cc1c(C#N)c(SSc2c(C#N)c(C#N)c(N)n2-c2ccc(F)cc2)n(-c2ccc(F)cc2)c1N
Reply text: 16.7 µM (inactive)

Inquiry: Input COC(=O)C(Cc1ccccc1)NP(=O)(O)OCC1OC(n2cc(F)c(=O)[nH]c2=O)CC1O (configuration not stated)
Reply text: > 22.5 µM (inactive)

Inquiry: Input CCP(=O)(OC)C1=CCN(C(=O)OCC[Si](C)(C)C)CC1 (configuration not stated)
Reply text: > 100 µM (inactive)

Inquiry: Input CN(C(=O)c1ccc(Cl)s1)C(=S)N(C)C(=O)c1ccc(Cl)s1
Reply text: > 10 µM (inactive)

Inquiry: Input COC(=O)c1ccccc1CC1Cc2cc3c(cc2C1=O)CCC3 (configuration not stated)
Reply text: 16 µM (inactive)

Inquiry: Input C(=C/c1ccc2nc(-c3ccc(/C=C/C=N/NC4=NCCCN4)cc3)cn2c1)/C=N/NC1=NCCCN1
Reply text: 31.5 µM (inactive)

Inquiry: Input COc1ccc(-n2/c(=N/C(=S)N(C)C)ss/c2=N\C(=S)N(C)C)cc1
Reply text: 14.2 µM (inactive)

Inquiry: Input CC(C)(C)[Si](C)(C)OCC1OC(n2cnc3c(N)ncnc32)C2OC(=S)OC12 (configuration not stated)
Reply text: 25 µM (inactive)

Inquiry: Input CN(CCCNCc1ccccn1)Cc1ccccc1O
Reply text: 20.2 µM (inactive)

###

test system: SNB-78; assay: NCI tumour cell line growth inhibition, 48 h
Activity calls are given as the source filed them. Cut-off read from the data, not from the text of the source: active = GI50 up to about 1.1 µM and inactive = higher.
Metric Name: GI50

Inquiry: // lookup GI50 for CC(C)CCCCCCCCCCCCC(=O)NCC(=O)NC1C(C)OC(Nc2ncnc3c2ncn3C)C(O)C1O (stereo unspecified)
Reply text: 4.72 µM (inactive)

Inquiry: Input CC(=O)OC(OC(C)=O)c1ncccc1C(=O)OC(C)C
Reply text: > 100 µM (inactive)

Inquiry: Input CCC1(c2ccc(N)cc2)CCC(=O)NC1=O (stereo unspecified) [AMINOGLUTETHIMIDE]
Reply text: 2170 µM (inactive)

Inquiry: Input CCN(CC)CC(=O)NC1c2ccccc2Oc2ccccc21
Reply text: > 100 µM (inactive)

Inquiry: Input CC(=O)NC(CCCCN(Cc1ccccc1)C(=O)N(CCCl)N=O)C(=O)NCc1ccccc1 (stereo unspecified)
Reply text: > 100 µM (inactive)

Inquiry: Input CN(C)CCC(/C=C/c1ccccc1)=N\Nc1c(F)c(F)c(F)c(F)c1F
Reply text: 50.9 µM (inactive)

###

tested on: SNB-75; assay: NCI tumour cell line growth inhibition, 48 h
Active and inactive are the calls of the source. Cut-off read from the data, not from the text of the source: active = GI50 up to about 1.1 µM and inactive = higher.
Result category, one only: active, inactive

Inquiry: Name the outcome recorded for CC1=C(\C=C/C(C)=C/C=C/C(C)=C/C=C/C=C(C)\C=C\C=C(C)/C=C/C2=C(C)CCCC2(C)C)C(C)(C)CCC1 in the assay.
Reply text: inactive

Inquiry: Input N#Cc1ccc(OCc2nc3cc(C(F)(F)F)ccc3nc2-c2ccccc2)cc1
Reply text: inactive

Inquiry: Input O=C(OCc1ccccc1CN1CCOCC1)c1ccc(Br)cc1
Reply text: inactive

Inquiry: Input COc1cc(C(O)CCBr)c(OC)cc1C (centres undefined)
Reply text: inactive

Inquiry: Input Brc1ccc2c3c1[C@@H]1O[C@@H]1c1cccc(c1-3)[C@@H]1O[C@H]21
Reply text: inactive

Inquiry: Input C/C=C1\CC2C(=O)CCC2C2c3ccccc3OC12 (centres undefined)
Reply text: inactive

Inquiry: Input Cc1ccc(C(=O)CC2=Nc3nnc(CCCCCCCc4nnc5n4C(=O)C(CC(=O)c4ccc(C)cc4)=N5)n3C2=O)cc1
Reply text: inactive

Inquiry: Input CS/C(=N\c1ccccc1)N(c1ccccc1)c1nc(=[N+](C)C)ss1.[O-][Cl+3]([O-])([O-])[O-]
Reply text: inactive

Inquiry: Input COc1ccc(Br)c(C(=O)N2CCc3ccccc32)c1N
Reply text: inactive

Inquiry: Input COc1ccc(OC)c2sc(N3C(=O)/C(=C/c4ccc(Cl)cc4)N=C3c3ccccc3)nc12
Reply text: inactive

Inquiry: Input Nc1nc(Cl)c2ncn(Cc3ccc(CCl)cc3)c2n1
Reply text: inactive

Inquiry: Input CCCCNC(=S)OCCC(C)CCCC(C)C (centres undefined)
Reply text: inactive

Inquiry: Input O=[N+]([O-])c1cccc(/C=N\NS(=O)(=O)c2ccc(Cl)cc2)c1O
Reply text: inactive

Inquiry: Input CCN(CC)CC(=O)NC1c2ccccc2Oc2ccccc21
Reply text: inactive

Inquiry: Input O=C(CNc1ccccc1Cl)Nn1c(-c2ccccc2)nc2ccccc2c1=O
Reply text: inactive

Inquiry: Input Cc1c(CNc2ccc(Cl)c(C(=O)NC(CC(=O)O)C(=O)O)c2)ccc2nc(N)nc(N)c12 (centres undefined)
Reply text: inactive

Inquiry: Input CN(CC(=O)N1CC(CCl)c2ccc([N+](=O)[O-])cc21)CC(=O)N1CC(CCl)c2ccc([N+](=O)[O-])cc21 (centres undefined)
Reply text: inactive

Inquiry: Input COC(=O)C(Cc1nc2ccccc2nc1O)C(=O)C(=O)Nc1ccc(F)cc1 (centres undefined)
Reply text: inactive

Inquiry: Input O=C(/C=C/c1ccccc1O)C(c1ccccc1)c1ccccc1
Reply text: inactive

Inquiry: Input COC(=O)CSC1CC(=O)c2c(Cl)sc(Cl)c21 (centres undefined)
Reply text: inactive

Inquiry: Input CC(C)(C)NC(=O)[C@H]1CC[C@H]2[C@@H]3CC=C4NC(=O)CC[C@]4(C)[C@H]3CC[C@]12C
Reply text: inactive

Inquiry: Input CCCOP(=O)(OCCC)OC(C(F)(F)F)C(F)(F)F
Reply text: inactive

Inquiry: Input CC1=C(C(=O)NCc2ccccc2)C(c2ccccc2[N+](=O)[O-])C(C(=O)NCc2ccccc2)=C(C)N1
Reply text: inactive

Inquiry: Input CN(C)CCC(/C=C/c1ccccc1)=N\Nc1c(F)c(F)c(F)c(F)c1F
Reply text: inactive

Inquiry: Input Cc1ccc(/N=N/C(=N\c2ccc(Cl)cc2)c2ccc(N(CCC#N)CCC#N)cc2)cc1
Reply text: inactive

Inquiry: Input COc1ccc(S(=O)(=O)N/N=C(\C)CN2C(=O)c3ccccc3C2=O)cc1
Reply text: inactive

Inquiry: Input CCOC(=O)NNC(=O)NCCCCNC(=O)NNC(=O)OCC
Reply text: active

Inquiry: Input O=CC1CCCc2ccccc21 (centres undefined)
Reply text: inactive

Inquiry: Input C[C@@H](c1ccccc1)N1CO[C@@]2(C#Cc3ccc4c(c3)OCO4)CCC[C@@H]12
Reply text: inactive

Inquiry: Input CN(C)C1=NC2=S(SC(Nc3ccccc3)=N2)S1 (centres undefined)
Reply text: inactive

Inquiry: Input [N-]=[N+]=NC1(c2ccccc2)C(=O)c2cccc3c2N(CCC3)C1=O (centres undefined)
Reply text: inactive

Inquiry: Input Cc1nc2ccc(NCCN(C)C)c3c(=O)c4ccccc4n1c23
Reply text: inactive

Inquiry: Input CCOC(=O)/C=C(\C(=O)OCC)n1ccc(=O)n(Cc2cn(CCCCOC(C)=O)nn2)c1=O
Reply text: inactive

Inquiry: Input C=C(NC(=O)C(=C)NC(=O)c1csc(C2=NC3c4csc(n4)C4NC(=O)c5csc(n5)C(C(C)(O)C(C)O)NC(=O)C5CSC(=N5)/C(=C/C)NC(=O)C(C(C)O)NC(=O)c5csc(n5)C3(CC2)NC(=O)C(C)NC(=O)C(=C)NC(=O)C(=C)NC(=O)C(C(C)C)NC2C=Cc3c(C(C)O)cc(nc3C2O)C(=O)OC4C)n1)C(N)=O (centres undefined)
Reply text: inactive

Inquiry: Input O=C(Cn1c(=O)oc2ccc(C(=O)c3cccc(Cl)c3)cc21)c1ccccc1
Reply text: inactive

Inquiry: Input CCCCCC1=C2C(c3ccc(OC)cc3)=C(N)C(c3ccc(OC)cc3)=C3NC(=O)C(C=C1)C32 (centres undefined)
Reply text: inactive

Inquiry: Input O=c1ccc2cc(O)c(O)cc2o1
Reply text: inactive

Inquiry: Input COc1ccc(CNc2nc3cc(C(F)(F)F)ccc3nc2-c2ccccc2)cc1OC
Reply text: inactive

Inquiry: Input CC(C)[Si](Oc1cc2c3c(ccc2c(O)c1[C@@H](C)CO[Si](C)(C)C(C)(C)C)C(C)(C)CCC3)(C(C)C)C(C)C
Reply text: inactive
